Experiment: Plasma pharmacokinetics in the CYP2D6 poor metabolizer cohort
Format: in vivo, human
Settings: human, plasma, oral; CYP2D6 poor metabolizers, single 10 mg; median (range); n = 7
test_readout: Tmax (h)
Report only the number, with the unit h understood.

Asked: Identify Tmax associated with the compound CCc1nc(-c2ccc3c(c2)CC[C@H]3NC(=O)c2cnn(C)c2)no1 [Aficamten]
Given back: 1

====

Assay: Plasma pharmacokinetics after single oral doses (SAD cohorts)
Format: in vivo, human
Conditions: human, plasma, po, single oral doses; read-out: Mean half-life, range across single-dose cohorts
test_readout: half-life

Asked: Find the measured half-life of CCc1nc(-c2ccc3c(c2)CC[C@H]3NC(=O)c2cnn(C)c2)no1 [Aficamten] and report it.
Given back: 75 to 85 h

====

Assay: Plasma pharmacokinetics in the food-effect cohort
Format: in vivo, human
Conditions: human, plasma, oral, 10 mg, Fed (high-fat breakfast), single 10 mg; geometric mean (geometric CV%); n = 12
test_readout: Cmax
Could you kindly put the unit after your number?

Asked: // Input: CCc1nc(-c2ccc3c(c2)CC[C@H]3NC(=O)c2cnn(C)c2)no1 [Aficamten] . Output its Cmax only.
Given back: 65 ng/mL

====

Experiment: Plasma pharmacokinetics after single oral doses (SAD cohorts)
Format: in vivo, human
Conditions: human, plasma; single oral dose 50 mg; geometric mean (geometric CV%); n = 11
test_readout: Cmax (ng/mL)
Please state the figure in ng/mL; there is no need to write the unit.

Asked: Let me know recorded Cmax for "CCc1nc(-c2ccc3c(c2)CC[C@H]3NC(=O)c2cnn(C)c2)no1" , thanks.
Given back: 359

====

Test: Plasma pharmacokinetics after multiple oral doses (MAD cohorts)
Assay type: in vivo, human
Conditions: human, plasma, oral, 7.5 mg, Day 17; 7.5 mg qd × 17 d; geometric mean (geometric CV%); n = 6; read-out: AUCtau
test_readout: AUC (ng·h/mL)
Response body: numeric value in ng·h/mL, unit text excluded.

Asked: Return the recorded AUC value; entry: "CCc1nc(-c2ccc3c(c2)CC[C@H]3NC(=O)c2cnn(C)c2)no1"
Given back: 2520

====

Test: Plasma pharmacokinetics in the food-effect cohort
Type: in vivo, human
Settings: human, plasma, oral, 10 mg, Fasted, single 10 mg; geometric mean (geometric CV%); n = 10
test_readout: Cmax (ng/mL)
Give your result in ng/mL as a bare value.

Asked: Recall and state the measured Cmax for CCc1nc(-c2ccc3c(c2)CC[C@H]3NC(=O)c2cnn(C)c2)no1 [Aficamten] .
Given back: 50.6

====

Experiment: Plasma pharmacokinetics after single oral doses (SAD cohorts)
Type: in vivo, human
Conditions: human, plasma, po, 10 mg, single oral dose 10 mg (extensive metabolizers); mean ± SD; n = 4; read-out: t1/2 (converted)
test_readout: half-life (h)
Unit h implied. Number only.

Asked: Look up and report measured half-life for this entry: "CCc1nc(-c2ccc3c(c2)CC[C@H]3NC(=O)c2cnn(C)c2)no1"
Given back: 85

====

Experiment: Plasma pharmacokinetics after single oral doses (SAD cohorts)
Format: in vivo, human
Conditions: human, plasma; single oral dose 10 mg; geometric mean (geometric CV%); n = 4
test_readout: AUC(0-inf) (ng·h/mL)
All answers are understood in ng·h/mL, so give the number only.

Asked: Name the recorded AUC(0-inf) of the item "CCc1nc(-c2ccc3c(c2)CC[C@H]3NC(=O)c2cnn(C)c2)no1" in your answer.
Given back: 3430
